Measured pEC50, listed per entry for reference.
# Assayed System: LXRβ (Homo sapiens (Human))
# Measurement Protocol: In vitro assay LXRβ: PathHunter NHR CHO cells, LXRβ / Steroid Receptor Co-activator Peptide enzyme fragment complementation
# Assay type: cell-based
# Experimental Conditions: PathHunter NHR CHO cells, full-length human LXRβ and SRCP, chemiluminescent signal; read-out: LXRβ PPI
pEC50: −log10 of the molar value.

C[C@H](CCc1nccs1)[C@H]1CC[C@H]2[C@@H]3CC=C4C[C@@H](O)CC[C@]4(C)[C@H]3CC[C@]12C ... 5.00 to 6.00

Could you please provide reported pEC50 for C[C@H](CCC(=O)N1CCC2(CCCO2)CC1)[C@H]1CC[C@H]2[C@@H]3CC=C4C[C@@H](O)CC[C@]4(C)[C@H]3CC[C@]12C ? Thanks! < 5.00

Could you please provide reported pEC50 for C[C@@H](NC(=O)C(=O)N(C)C)[C@H]1CC[C@H]2[C@@H]3CC=C4C[C@@H](O)CC[C@]4(C)[C@H]3CC[C@]12C (single isomer, unassigned) [Example 119] ? Thanks! < 5.00

Could you please provide reported pEC50 for C[C@H](CCc1cc(F)ccn1)[C@H]1CC[C@H]2[C@@H]3CC=C4C[C@@H](O)CC[C@]4(C)[C@H]3CC[C@]12C ? Thanks! 5.00 to 6.00

Could you please provide reported pEC50 for C[C@H](COC(=O)N1CCN(c2ccncc2)CC1)[C@H]1CC[C@H]2[C@@H]3CC=C4C[C@@H](O)CC[C@]4(C)[C@H]3CC[C@]12C ? Thanks! < 5.00

Could you please provide reported pEC50 for Cc1cccnc1OC[C@@H](C)[C@H]1CC[C@H]2[C@@H]3CC=C4C[C@@H](O)CC[C@]4(C)[C@H]3CC[C@]12C ? Thanks! < 5.00

###

Measured pEC50, listed per entry for reference.
# Assayed System: LXRβ (Homo sapiens (Human), UniProt P55055)
# Sequence (P55055 whole entry, the tested form may be a part): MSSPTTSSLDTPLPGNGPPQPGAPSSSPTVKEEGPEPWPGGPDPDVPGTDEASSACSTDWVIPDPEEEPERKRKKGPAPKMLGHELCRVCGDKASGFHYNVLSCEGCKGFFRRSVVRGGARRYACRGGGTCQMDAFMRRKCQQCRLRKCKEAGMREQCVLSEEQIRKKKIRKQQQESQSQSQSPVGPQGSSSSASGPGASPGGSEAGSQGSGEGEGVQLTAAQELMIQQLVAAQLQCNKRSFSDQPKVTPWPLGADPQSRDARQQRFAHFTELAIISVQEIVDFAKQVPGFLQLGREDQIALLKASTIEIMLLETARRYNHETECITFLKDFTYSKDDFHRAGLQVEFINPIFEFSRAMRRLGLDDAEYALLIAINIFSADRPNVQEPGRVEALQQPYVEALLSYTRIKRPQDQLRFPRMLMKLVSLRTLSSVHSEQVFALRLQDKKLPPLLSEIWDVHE
# Measurement Protocol: In vitro assay LXRβ: PathHunter NHR CHO cells, LXRβ / Steroid Receptor Co-activator Peptide enzyme fragment complementation
# Type: cell-based
# Experimental Conditions: PathHunter NHR CHO cells, full-length human LXRβ and SRCP, chemiluminescent signal; read-out: LXRβ PPI
pEC50: −log10 of the molar value.

Example cases with answers are listed next.
COc1cccnc1NC(=O)CC[C@@H](C)[C@H]1CC[C@H]2[C@@H]3CC=C4C[C@@H](O)CC[C@]4(C)[C@H]3CC[C@]12C ... < 5.00
C[C@H](CCC(=O)N1CCN(c2ccncc2)C[C@@H]1C)[C@H]1CC[C@H]2[C@@H]3CC=C4C[C@@H](O)CC[C@]4(C)[C@H]3CC[C@]12C ... < 5.00
CCCN(OC)C(=O)CC[C@@H](C)[C@H]1CC[C@H]2[C@@H]3CC=C4C[C@@H](O)CC[C@]4(C)[C@H]3CC[C@]12C ... 6.00 to 6.60
Cc1nnc(N2CCN(C(=O)CC[C@@H](C)[C@H]3CC[C@H]4[C@@H]5CC=C6C[C@@H](O)CC[C@]6(C)[C@H]5CC[C@]34C)CC2)s1 ... < 5.00

Please look at the following compound next.
Could you please provide reported pEC50 for C[C@H](CCC(=O)N1CCC[C@H](Oc2ccncn2)C1)[C@H]1CC[C@H]2[C@@H]3CC=C4C[C@@H](O)CC[C@]4(C)[C@H]3CC[C@]12C ? Thanks! 6.00 to 6.60

From: patent US20230340011A1
